Test target: NAD-dependent protein deacetylase sirtuin-3, mitochondrial (Homo sapiens)
Sequence (Q9NTG7 whole entry, the tested form may be a part): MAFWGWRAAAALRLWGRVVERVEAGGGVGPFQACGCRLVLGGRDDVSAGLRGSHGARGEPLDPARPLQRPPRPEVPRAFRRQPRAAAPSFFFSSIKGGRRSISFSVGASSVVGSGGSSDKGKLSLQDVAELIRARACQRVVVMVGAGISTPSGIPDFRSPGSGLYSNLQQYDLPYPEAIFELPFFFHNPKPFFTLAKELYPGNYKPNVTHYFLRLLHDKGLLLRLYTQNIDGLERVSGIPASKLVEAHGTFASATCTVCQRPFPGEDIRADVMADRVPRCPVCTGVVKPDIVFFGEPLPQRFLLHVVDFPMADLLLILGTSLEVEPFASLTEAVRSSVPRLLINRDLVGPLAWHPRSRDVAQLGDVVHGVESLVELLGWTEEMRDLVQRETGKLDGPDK
Procedure summary: Inhibition of recombinant human SIRT3 (118 to 399 residues) defatty-acylase activity expressed in Escherichia coli using SFP3 as substrate measured at 5 mins interval for 60 mins in presence of NAD+ by fluorescence assay
pIC50: −log10 of the molar value. Non-standard residues stand in square brackets, D forms with d. Residues, ends and D or L forms follow the SMILES beside them. *: point of attachment. Lys(thiomyristoyl) = CCCCCCCCCCCCCC(=S)NCCCC[C@H](N)C(=O)O; X3 = CN(C)c1ccc(/N=N/c2ccc(CCC(=O)*)cc2)cc1; X4 = CN(C)c1ccc(/N=N/c2ccc(CC(=O)*)cc2)cc1; X2 = CN(C)c1ccc(/N=N/c2ccc(C(=O)*)cc2)cc1; X1 = O=C(Cc1ccc(/N=N/c2ccc(O)cc2)cc1)*
Reported endpoint: pIC50

| Compound | pIC50 |
| --- | --- |
| CC[C@H](C)[C@H](NC(=O)[C@H](CCCNC(=N)N)NC(C)=O)C(=O)N[C@@H](CCCCNC(=O)Cc1ccc(/N=N/c2ccc(O)cc2)cc1)C(=O)N[C@@H](CCCNC(=N)N)C(=O)N[C@@H](Cc1ccc(O)cc1)C(N)=O (Ac-RIK(X1)RY-NH2) | 7.26 |

1: CC[C@H](C)[C@H](NC(=O)[C@H](CCCNC(=N)N)NC(C)=O)C(=O)N[C@@H](CCCCNC(=O)CCc1ccc(/N=N/c2ccc(N(C)C)cc2)cc1)C(=O)N[C@@H](CCCNC(=N)N)C(=O)N[C@@H](Cc1ccc(O)cc1)C(N)=O (Ac-RIK(X3)RY-NH2)
2: CCCCCCCCCCCCCC(=S)NCCCC[C@H](NC(=O)[C@@H](NC(=O)[C@H](CCCNC(=N)N)NC(C)=O)[C@@H](C)CC)C(=O)N[C@@H](CCCNC(=N)N)C(=O)N[C@@H](Cc1ccc(O)cc1)C(N)=O (Ac-RI[Lys(thiomyristoyl)]RY-NH2)
3: CC[C@H](C)[C@H](NC(=O)[C@H](CCCNC(=N)N)NC(C)=O)C(=O)N[C@@H](CCCCNC(=O)Cc1ccc(/N=N/c2ccc(N(C)C)cc2)cc1)C(=O)N[C@@H](CCCNC(=N)N)C(=O)N[C@@H](Cc1ccc(O)cc1)C(N)=O (Ac-RIK(X4)RY-NH2)
4: CC[C@H](C)[C@H](NC(=O)[C@H](CCCNC(=N)N)NC(C)=O)C(=O)N[C@@H](CCCCNC(=O)c1ccc(/N=N/c2ccc(N(C)C)cc2)cc1)C(=O)N[C@@H](CCCNC(=N)N)C(=O)N[C@@H](Cc1ccc(O)cc1)C(N)=O (Ac-RIK(X2)RY-NH2)
Put these in order: smallest pIC50 first, largest last. Output spec: a listing of the labels in the requested order.
1, 4, 3, 2

* * *

Test target: NAD-dependent protein deacetylase sirtuin-2 (Homo sapiens, UniProt Q8IXJ6)
Sequence (Q8IXJ6 whole entry): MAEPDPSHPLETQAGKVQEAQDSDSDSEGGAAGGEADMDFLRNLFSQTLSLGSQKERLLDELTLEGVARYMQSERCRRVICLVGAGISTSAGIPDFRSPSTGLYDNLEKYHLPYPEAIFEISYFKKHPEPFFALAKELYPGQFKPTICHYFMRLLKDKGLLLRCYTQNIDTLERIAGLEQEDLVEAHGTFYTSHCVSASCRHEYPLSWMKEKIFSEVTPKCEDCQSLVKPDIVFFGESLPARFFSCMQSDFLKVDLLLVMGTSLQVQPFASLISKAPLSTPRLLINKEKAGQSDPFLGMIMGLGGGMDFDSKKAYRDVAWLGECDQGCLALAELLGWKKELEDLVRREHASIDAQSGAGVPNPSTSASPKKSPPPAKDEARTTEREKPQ
Procedure summary: Inhibition of recombinant human SIRT2 demyristoylase activity using p53(Myr)-AMC as substrate measured after 3 hrs in presence of NAD+ and trypsin by fluorescence assay
pIC50: −log10 of the molar value. Residues, ends and D or L forms follow the SMILES beside them. *: point of attachment. Phenylacetyl(4-E-phenylazo) = O=C(Cc1ccc(/N=N/c2ccccc2)cc1)*; X1 = O=C(Cc1ccc(/N=N/c2ccc(O)cc2)cc1)*
Reported endpoint: pIC50

| Compound | pIC50 |
| --- | --- |
| CC[C@H](C)[C@H](NC(=O)[C@H](CCCNC(=N)N)NC(C)=O)C(=O)N[C@@H](CCCCNC(=O)Cc1ccc(/N=N/c2ccc(O)cc2)cc1)C(=O)N[C@@H](CCCNC(=N)N)C(=O)N[C@@H](Cc1ccc(O)cc1)C(N)=O (Ac-RIK(X1)RY-NH2) | 7.36 |

A: CC[C@H](C)[C@H](NC(=O)[C@H](CCCNC(=N)N)NC(C)=O)C(=O)N[C@@H](CCCCNC(=O)Cc1ccc(/N=N/c2ccccc2)cc1)C(=O)N[C@@H](CCCNC(=N)N)C(=O)N[C@@H](Cc1ccc(O)cc1)C(N)=O (Ac-RIK(Phenylacetyl(4-E-phenylazo))RY-NH2)
B: CC[C@H](C)[C@H](NC(=O)[C@H](CCCCNC(=O)Cc1ccc(/N=N/c2ccccc2)cc1)NC(=O)[C@@H](NC(C)=O)C(C)C)C(=O)N[C@@H](CCCCN)C(=O)N[C@@H](CCCCN)C(N)=O (Ac-VK(Phenylacetyl(4-E-phenylazo))IKK-NH2)
For the pair A and B , which entry has the numerically smaller recorded pIC50? Kindly state the label of the option you pick.
B

src = ChEMBL document CHEMBL4304758
